Below, each of the variants is paired with its reported protein stability index value.
B1: FUT8 (parent)
chain: YPSYKVREKIETVKYPTYPEAEK

- Variants of: B1
- protocol: protein stability index of a GFP-peptide fusion (GPS, HEK-293T) (PSI 1-6); higher = more stable;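 note: lentivirally expressed fusions sorted by FACS into six bins by GFP to DsRed ratio, PSI derived from sequencing read proportions per bin multiplied by bin number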
- condition: c terminus: native
In your answer, state the number alone without any accompanying words.

Please review the following examples before continuing.
Prompt: Item under review: "T12N" . Reported protein stability index?
Response: 3.62

Prompt: Item under review: "T17E" . Reported protein stability index?
Response: 4.43

Prompt: Item under review: "Y15Q" . Reported protein stability index?
Response: 4.77

Next:
Prompt: Item under review: "K9N" . Reported protein stability index?
Response: 4.38

Prompt: Item under review: "P2Q" . Reported protein stability index?
Response: 2.5

Prompt: Item under review: "T17A" . Reported protein stability index?
Response: 4.56

Prompt: Item under review: "K9W" . Reported protein stability index?
Response: 1.99

Prompt: Item under review: "V13H" . Reported protein stability index?
Response: 3.97

Prompt: Item under review: "S3D" . Reported protein stability index?
Response: 4.69

Prompt: Item under review: "T12V" . Reported protein stability index?
Response: 2.14

Prompt: Item under review: "Y1E" . Reported protein stability index?
Response: 4.99

Prompt: Item under review: "T17F" . Reported protein stability index?
Response: 3.45

Prompt: Item under review: "V13I" . Reported protein stability index?
Response: 4.29

Prompt: Item under review: "P19Y" . Reported protein stability index?
Response: 1.25

Prompt: Item under review: "P2R" . Reported protein stability index?
Response: 4.76

Prompt: Item under review: "V6S" . Reported protein stability index?
Response: 4.48

Where do these numbers come from? They come from the supplement of paper PMC10567573.
